Observed pIC50 for UniProtKB P00748, reported per entry below.
Sequence (P00748 373-615): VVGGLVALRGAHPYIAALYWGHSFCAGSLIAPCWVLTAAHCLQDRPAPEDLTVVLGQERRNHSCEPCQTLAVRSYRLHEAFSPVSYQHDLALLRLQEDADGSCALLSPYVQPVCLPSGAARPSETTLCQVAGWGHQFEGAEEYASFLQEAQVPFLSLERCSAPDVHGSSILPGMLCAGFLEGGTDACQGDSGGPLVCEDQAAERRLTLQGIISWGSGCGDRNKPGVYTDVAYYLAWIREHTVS
Sequence (P00748 20-372 partner): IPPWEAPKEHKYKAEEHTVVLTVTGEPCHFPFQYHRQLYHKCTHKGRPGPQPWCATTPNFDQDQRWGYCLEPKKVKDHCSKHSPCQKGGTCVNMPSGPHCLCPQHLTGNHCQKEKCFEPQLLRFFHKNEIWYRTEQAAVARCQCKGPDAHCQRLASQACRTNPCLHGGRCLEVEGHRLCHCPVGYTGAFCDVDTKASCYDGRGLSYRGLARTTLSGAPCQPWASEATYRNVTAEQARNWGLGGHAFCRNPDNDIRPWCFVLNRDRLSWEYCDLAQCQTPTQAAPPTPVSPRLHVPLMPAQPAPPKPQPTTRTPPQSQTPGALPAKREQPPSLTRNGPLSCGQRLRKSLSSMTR
pIC50: −log10 of the molar value.
Property name: pIC50

{"Compound": "CN(C)CCCC[C@H](C(=O)N1CC[C@@H](NC(=O)c2ccccc2)[C@@H](C(=O)NCc2cccs2)C1)N(C)C1CCCCC1 [Compound 8]", "Measured number": 7.22}
{"Compound": "CS(=O)(=O)NCCCC[C@@H](NC1CCC2(CC1)CCN(Cc1ccccc1)C2)C(=O)N1CC[C@@H](NC(=O)N2CCC3(CC2)CC3)[C@@H](C(=O)NCc2cccs2)C1 (stereo partly drawn) [Compound 18]", "Measured number": 7.53}
{"Compound": "CN(C)CCCC[C@H](C(=O)N1CC[C@@H](NC(=O)c2ccc(F)cc2)[C@@H](C(=O)NCc2cccs2)C1)N(C)C1CCCCC1 [Compound 6]", "Measured number": 7.01}
